Hey, just so you know, these numbers are from patent US20200270225A1.

Target: wild-type Choristoneura fumiferana EcR (D, E and F domains) (Choristoneura fumiferana)
Format: cell-based
Conditions: rac; WT-CtEcR, 3T3 Cells; relative to GS-E ligand
Measured RMFI (relative maximum fold induction), listed per entry.

{"columns": ["molecule", "RMFI (relative maximum fold induction)"],
 "data": [
  ["CCCC(N(NC(=O)c1ccc(OC)cc1)C(=O)c1cc(C)cc(C)c1)C(C)(C)C (racemic) [rac-13]", 0.54],
  ["CCCC(N(NC(=O)c1ccc2c(c1C)OCCO2)C(=O)c1cc(C)cc(C)c1)C(C)(C)C (racemic) [rac-21]", 0.86],
  ["C=CCC(C1CCCCC1)N(NC(=O)c1cccc(OC)c1C)C(=O)c1cc(OC)c(C)c(OC)c1 (racemic) [rac-61]", 0.31],
  ["CCCC(N(NC(=O)c1cc(C)oc1C)C(=O)c1cc(C)cc(C)c1)C(C)(C)C (racemic) [rac-26]", 0.76]
]}

* * *

Biological target: wild-type Choristoneura fumiferana EcR (D, E and F domains) (Choristoneura fumiferana, UniProt O77240)
Assay type: cell-based
Conditions: rac; WT-CtEcR, 3T3 Cells; read-out: EC50
pEC50: −log10 of the molar value.
Rule: pEC50 of 7 or more gives 1; anything lower gives 0.

{"columns": ["molecule", "answer.label"],
 "data": [
  ["CCCC(N(NC(=O)c1cc(OC)c(C)c(OC)c1)C(=O)c1cc(C)cc(C)c1)C(C)(C)C (racemic)", 0],
  ["CCCC(N(NC(=O)c1ccc2c(c1CC)OCCO2)C(=O)c1cc(C)cc(C)c1)C(C)(C)C (racemic)", 1],
  ["CCCC(N(NC(=O)c1cccc2ccccc12)C(=O)c1cc(C)cc(C)c1)C(C)(C)C (racemic)", 0],
  ["CCCC(N(NC(=O)c1ccc(OC)c(OC)c1)C(=O)c1cc(C)cc(C)c1)C(C)(C)C (racemic)", 0],
  ["CCCC(N(NC(=O)c1cccc(OC)c1)C(=O)c1cc(C)cc(C)c1)C(C)(C)C (racemic)", 0],
  ["CCCC(N(NC(=O)c1cccc(C)c1)C(=O)c1cc(C)cc(C)c1)C(C)(C)C (racemic)", 0]
]}

* * *

Molecular target: wild-type Choristoneura fumiferana EcR (D, E and F domains) (Choristoneura fumiferana)
Assay type: cell-based
Conditions: R; WT-CtEcR, 3T3 Cells
Description: Cellular gene switch assays were performed by transiently transfecting the following constructs in mouse embryonic fibroblast cells (NIH3T3). […] NIH3T3 cells were maintained at 37′C and 5% CO2 in Dulbecco's modified Eagle's medium (DMEM) supplemented with 10% bovine calf serum, both obtained from Mediatech Inc., Manassas, Va. […] EC50 values were measured minimally in duplicate. […]
measurement.label: EC50

{"columns": ["structure.notation", "experimental.system", "result.value"],
 "data": [
  ["CCC[C@@H](N(NC(=O)c1cccc(OC)c1C)C(=O)c1cc(C)cc(C)c1)C(C)(C)C", "wild-type Choristoneura fumiferana EcR (D, E and F domains) (Choristoneura fumiferana)", "~1 nM"],
  ["CCC[C@@H](N(NC(=O)c1ccccc1Cl)C(=O)c1cc(C)cc(C)c1)C(C)(C)C", "wild-type Choristoneura fumiferana EcR (D, E and F domains) (Choristoneura fumiferana)", "~20 nM"],
  ["CCC[C@@H](N(NC(=O)c1cc(C)oc1C)C(=O)c1cc(C)cc(C)c1)C(C)(C)C", "wild-type Choristoneura fumiferana EcR (D, E and F domains) (Choristoneura fumiferana)", "~1000 nM"],
  ["CCC[C@@H](N(NC(=O)c1ccc(OC)c(OC)c1)C(=O)c1cc(C)cc(C)c1)C(C)(C)C", "wild-type Choristoneura fumiferana EcR (D, E and F domains) (Choristoneura fumiferana)", "~4000 nM"],
  ["CCC[C@@H](N(NC(=O)c1ccccc1F)C(=O)c1cc(C)cc(C)c1)C(C)(C)C", "wild-type Choristoneura fumiferana EcR (D, E and F domains) (Choristoneura fumiferana)", "~40 nM"],
  ["C=CC[C@H](C1CCCCC1)N(NC(=O)c1cccc(OC)c1C)C(=O)c1cc(C)c(OC)c(C)c1", "wild-type Choristoneura fumiferana EcR (D, E and F domains) (Choristoneura fumiferana)", "~3300 nM"],
  ["CCC[C@@H](N(NC(=O)OC(C)(C)C)C(=O)c1cc(C)cc(C)c1)C(C)(C)C", "wild-type Choristoneura fumiferana EcR (D, E and F domains) (Choristoneura fumiferana)", "15100 nM"],
  ["CCC[C@H](C1CCCCC1)N(NC(=O)c1cccc(OC)c1CC)C(=O)c1cc(C)cc(C)c1", "wild-type Choristoneura fumiferana EcR (D, E and F domains) (Choristoneura fumiferana)", "220 nM"],
  ["CCC[C@@H](N(NC(=O)c1ccccc1)C(=O)c1cc(C)cc(C)c1)C(C)(C)C", "wild-type Choristoneura fumiferana EcR (D, E and F domains) (Choristoneura fumiferana)", "~30 nM"],
  ["CCC[C@@H](N(NC(=O)c1ccccc1Br)C(=O)c1cc(C)cc(C)c1)C(C)(C)C", "wild-type Choristoneura fumiferana EcR (D, E and F domains) (Choristoneura fumiferana)", "78.7 nM"],
  ["CCC[C@@H](N(NC(=O)c1cccc(OC)c1C)C(=O)c1cc(OC)c(C)c(OC)c1)C(C)(C)C", "wild-type Choristoneura fumiferana EcR (D, E and F domains) (Choristoneura fumiferana)", "~70 nM"],
  ["CCC[C@@H](N(NC(=O)c1ccc2c(c1C)OCCO2)C(=O)c1cc(C)cc(C)c1)C(C)(C)C", "wild-type Choristoneura fumiferana EcR (D, E and F domains) (Choristoneura fumiferana)", "0.304 nM"]
]}

* * *

Measured EC50, listed per entry.
Molecular target: wild-type Choristoneura fumiferana EcR (D, E and F domains) (Choristoneura fumiferana, UniProt O77240)
Assay type: cell-based
Settings: R; WT-CtEcR, 3T3 Cells

{"columns": ["structure.notation", "EC50"],
 "data": [
  ["CCC[C@@H](N(NC(=O)c1ccccc1C)C(=O)c1cc(C)cc(C)c1)C(C)(C)C", "90 nM"],
  ["CCC[C@@H](N(NC(=O)c1cccc(Cl)c1)C(=O)c1cc(C)cc(C)c1)C(C)(C)C", "94.5 nM"],
  ["CCC[C@H](C1CCCCC1)N(NC(=O)c1cccc(OC)c1)C(=O)c1cc(C)cc(C)c1", "~3300 nM"],
  ["C=CC[C@H](C1CCCCC1)N(NC(=O)c1cccc(OC)c1C)C(=O)c1cc(C)cc(C)c1", "~2000 nM"],
  ["CCC[C@@H](N(NC(=O)c1cc(OC)c(C)c(OC)c1)C(=O)c1cc(C)cc(C)c1)C(C)(C)C", "~5000 nM"],
  ["CCC[C@H](C1CCCCC1)N(NC(=O)c1ccc(CC)cc1)C(=O)c1cc(C)cc(C)c1", "~2000 nM"],
  ["CCC[C@@H](N(NC(=O)c1ccc(Cl)cc1)C(=O)c1cc(C)cc(C)c1)C(C)(C)C", "140 nM"],
  ["CCC[C@@H](N(NC(=O)c1ccc(C)cc1)C(=O)c1cc(C)cc(C)c1)C(C)(C)C", "~20 nM"],
  ["CCC[C@@H](N(NC(=O)c1cc(F)cc(F)c1)C(=O)c1cc(C)cc(C)c1)C(C)(C)C", "141 nM"],
  ["CCC[C@@H](N(NC(=O)c1cccc2ccccc12)C(=O)c1cc(C)cc(C)c1)C(C)(C)C", "111 nM"],
  ["CCC[C@@H](N(NC(=O)c1cccnc1Cl)C(=O)c1cc(C)cc(C)c1)C(C)(C)C", "95.2 nM"],
  ["CCC[C@@H](N(NC(=O)c1ccc2ccccc2c1)C(=O)c1cc(C)cc(C)c1)C(C)(C)C", "~200 nM"],
  ["CCC[C@@H](N(NC(=O)c1cccc(C)c1)C(=O)c1cc(C)cc(C)c1)C(C)(C)C", "~30 nM"],
  ["CCC[C@@H](N(NC(=O)c1c(Cl)cccc1Cl)C(=O)c1cc(C)cc(C)c1)C(C)(C)C", "~300 nM"],
  ["CCC[C@H](C1CCCCC1)N(NC(=O)c1ccccc1)C(=O)c1cc(C)cc(C)c1", "~3300 nM"]
]}

* * *

Molecular target: [V390I/Y410E/E274V]-CfEcR (Choristoneura fumiferana)
Construct: assay construct b835
Assay type: cell-based
Conditions: rac, 3T3 Cells, relative to GS-E ligand
Experimental: Cellular gene switch assays were performed by transiently transfecting the following constructs in mouse embryonic fibroblast cells (NIH3T3). […] NIH3T3 cells were maintained at 37′C and 5% CO2 in Dulbecco's modified Eagle's medium (DMEM) supplemented with 10% bovine calf serum, both obtained from Mediatech Inc., Manassas, Va. […] EC50 values were measured minimally in duplicate. […]
Label YES when RMFI (relative maximum fold induction) is strictly below 0.8; otherwise label NO.

{"columns": ["compound", "answer.label"],
 "data": [
  ["CCCC(N(NC(=O)c1ccc(CC)cc1)C(=O)c1cc(C)cc(C)c1)C(C)(C)C (racemic) [rac-12]", "NO"],
  ["CCCC(N(NC(=O)c1c(Cl)cccc1Cl)C(=O)c1cc(C)cc(C)c1)C(C)(C)C (racemic) [rac-3]", "NO"],
  ["CCCC(N(NC(=O)c1ccc2c(c1C)OCCO2)C(=O)c1cc(C)cc(C)c1)C(C)(C)C (racemic) [rac-21]", "NO"],
  ["C=CCC(CCc1ccccc1)N(NC(=O)c1ccc(CC)cc1)C(=O)c1cc(C)cc(C)c1 (racemic) [rac-62]", "YES"],
  ["CCCC(N(NC(=O)c1ccc(OC)cc1)C(=O)c1cc(C)cc(C)c1)C(C)(C)C (racemic) [rac-13]", "YES"],
  ["CCCC(N(NC(=O)c1ccc(Cl)nc1)C(=O)c1cc(C)cc(C)c1)C(C)(C)C (racemic) [rac-28]", "YES"],
  ["CCCC(N(NC(=O)c1cccs1)C(=O)c1cc(C)cc(C)c1)C(C)(C)C (racemic) [rac-25]", "NO"],
  ["C=CCC(C1CCCCC1)N(NC(=O)c1cccc(OC)c1C)C(=O)c1cc(C)cc(C)c1 (racemic) [rac-60]", "YES"],
  ["CCCC(N(NC(=O)c1cccc(OC)c1CC)C(=O)c1cc(C)cc(C)c1)C(C)(C)C (racemic) [rac-2]", "NO"],
  ["CCCC(N(NC(=O)c1cccc(OC)c1CC)C(=O)c1cc(C)cc(C)c1)C(C)(C)C (racemic) [rac-1]", "NO"],
  ["CCCC(N(NC(=O)c1cc(OC)c(C)c(OC)c1)C(=O)c1cc(C)cc(C)c1)C(C)(C)C (racemic) [rac-19]", "YES"],
  ["CCCC(N(NC(=O)c1ccccc1Br)C(=O)c1cc(C)cc(C)c1)C(C)(C)C (racemic) [rac-7]", "NO"],
  ["C=CCC(C1CCCCC1)N(NC(=O)c1cccc(OC)c1C)C(=O)c1cc(OC)c(C)c(OC)c1 (racemic) [rac-61]", "YES"],
  ["CCCC(N(NC(=O)c1cccc(C)c1)C(=O)c1cc(C)cc(C)c1)C(C)(C)C (racemic) [rac-8]", "NO"],
  ["CCCC(N(NC(=O)c1cc(C)oc1C)C(=O)c1cc(C)cc(C)c1)C(C)(C)C (racemic) [rac-26]", "NO"],
  ["CCCC(N(NC(=O)c1ccccc1OC)C(=O)c1cc(C)cc(C)c1)C(C)(C)C (racemic) [rac-4]", "YES"],
  ["CCCC(N(NC(=O)c1ccc(C)cc1)C(=O)c1cc(C)cc(C)c1)C(C)(C)C (racemic) [rac-11]", "YES"],
  ["CCCC(N(NC(=O)c1ccc2ccccc2c1)C(=O)c1cc(C)cc(C)c1)C(C)(C)C (racemic) [rac-24]", "YES"],
  ["CCCC(N(NC(=O)c1c(F)cccc1F)C(=O)c1cc(C)cc(C)c1)C(C)(C)C (racemic) [rac-15]", "NO"],
  ["CCCC(N(NC(=O)c1cccc(OC)c1)C(=O)c1cc(C)cc(C)c1)C(C)(C)C (racemic) [rac-9]", "YES"],
  ["CCCC(N(NC(=O)c1ccc(Cl)cc1)C(=O)c1cc(C)cc(C)c1)C(C)(C)C (racemic) [rac-14]", "NO"],
  ["CCCC(N(NC(=O)c1cccc(Cl)c1)C(=O)c1cc(C)cc(C)c1)C(C)(C)C (racemic) [rac-10]", "NO"],
  ["CCCC(N(NC(=O)OC(C)(C)C)C(=O)c1cc(C)cc(C)c1)C(C)(C)C (racemic) [rac-49]", "YES"],
  ["CCCC(N(NC(=O)c1ccc2c(c1C)OCO2)C(=O)c1cc(C)cc(C)c1)C(C)(C)C (racemic) [rac-20]", "NO"],
  ["CCCC(N(NC(=O)c1ccccc1Cl)C(=O)c1cc(C)cc(C)c1)C(C)(C)C (racemic) [rac-6]", "NO"],
  ["CCCC(N(NC(=O)c1cc(F)cc(F)c1)C(=O)c1cc(C)cc(C)c1)C(C)(C)C (racemic) [rac-18]", "NO"],
  ["CCCC(N(NC(=O)c1ccccc1F)C(=O)c1cc(C)cc(C)c1)C(C)(C)C (racemic) [rac-5]", "YES"]
]}
